- Tested on: human podocytes
- assay-remarks: Oris cell migration assay, PAN-induced podocyte motility, fibronectin coated plate
- Assay type: cell-based
- study-conditions: Homo sapiens; fibronectin coated plates, PAN 15 ug/ml, 48 h; read-out: IC50, inhibition of puromycin-induced human podocyte motility
outcome-measure: IC50 (nM)

compound: COc1ccc([C@H](CC(=O)O)N2CCN(CCCc3ccc4c(n3)NCCC4)C2=O)cn1 [Compound A]
experimental-system: human podocytes
assay-result: 1.12

====

Listed molecules paired with reported pIC50
- experimental-system: αvβ3 purified from 293 cells overexpressing αvβ3 (Homo sapiens, UniProt P05106+P06756)
- Sequence (P06756 31-889 limits assumed): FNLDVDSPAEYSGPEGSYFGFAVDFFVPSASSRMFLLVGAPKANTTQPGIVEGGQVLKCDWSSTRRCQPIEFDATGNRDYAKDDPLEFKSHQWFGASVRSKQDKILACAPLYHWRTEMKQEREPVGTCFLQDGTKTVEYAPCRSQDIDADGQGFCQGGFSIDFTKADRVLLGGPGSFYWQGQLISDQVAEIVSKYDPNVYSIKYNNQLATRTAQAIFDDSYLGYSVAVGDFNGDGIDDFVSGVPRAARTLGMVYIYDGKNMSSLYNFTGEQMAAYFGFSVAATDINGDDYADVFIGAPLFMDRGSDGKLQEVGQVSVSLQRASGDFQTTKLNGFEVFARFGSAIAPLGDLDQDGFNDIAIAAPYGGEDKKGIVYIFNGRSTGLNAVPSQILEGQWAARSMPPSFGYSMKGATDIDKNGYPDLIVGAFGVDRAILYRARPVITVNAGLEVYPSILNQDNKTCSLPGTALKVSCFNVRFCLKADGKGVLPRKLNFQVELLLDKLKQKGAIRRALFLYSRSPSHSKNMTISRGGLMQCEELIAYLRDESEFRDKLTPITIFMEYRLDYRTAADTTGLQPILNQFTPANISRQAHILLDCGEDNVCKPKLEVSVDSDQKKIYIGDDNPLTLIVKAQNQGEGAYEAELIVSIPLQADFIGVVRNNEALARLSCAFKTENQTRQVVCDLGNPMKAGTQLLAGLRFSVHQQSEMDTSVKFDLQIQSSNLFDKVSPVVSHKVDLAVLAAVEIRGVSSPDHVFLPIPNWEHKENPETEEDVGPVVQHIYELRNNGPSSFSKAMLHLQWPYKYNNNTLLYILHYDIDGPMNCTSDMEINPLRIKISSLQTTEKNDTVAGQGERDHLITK
- Sequence (P06756 891-1048 partner limits assumed): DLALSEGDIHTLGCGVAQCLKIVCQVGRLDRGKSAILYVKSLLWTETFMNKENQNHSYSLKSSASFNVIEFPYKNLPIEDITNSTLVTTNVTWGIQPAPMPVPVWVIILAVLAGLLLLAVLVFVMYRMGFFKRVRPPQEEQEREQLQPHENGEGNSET
- Sequence (P05106 27-788): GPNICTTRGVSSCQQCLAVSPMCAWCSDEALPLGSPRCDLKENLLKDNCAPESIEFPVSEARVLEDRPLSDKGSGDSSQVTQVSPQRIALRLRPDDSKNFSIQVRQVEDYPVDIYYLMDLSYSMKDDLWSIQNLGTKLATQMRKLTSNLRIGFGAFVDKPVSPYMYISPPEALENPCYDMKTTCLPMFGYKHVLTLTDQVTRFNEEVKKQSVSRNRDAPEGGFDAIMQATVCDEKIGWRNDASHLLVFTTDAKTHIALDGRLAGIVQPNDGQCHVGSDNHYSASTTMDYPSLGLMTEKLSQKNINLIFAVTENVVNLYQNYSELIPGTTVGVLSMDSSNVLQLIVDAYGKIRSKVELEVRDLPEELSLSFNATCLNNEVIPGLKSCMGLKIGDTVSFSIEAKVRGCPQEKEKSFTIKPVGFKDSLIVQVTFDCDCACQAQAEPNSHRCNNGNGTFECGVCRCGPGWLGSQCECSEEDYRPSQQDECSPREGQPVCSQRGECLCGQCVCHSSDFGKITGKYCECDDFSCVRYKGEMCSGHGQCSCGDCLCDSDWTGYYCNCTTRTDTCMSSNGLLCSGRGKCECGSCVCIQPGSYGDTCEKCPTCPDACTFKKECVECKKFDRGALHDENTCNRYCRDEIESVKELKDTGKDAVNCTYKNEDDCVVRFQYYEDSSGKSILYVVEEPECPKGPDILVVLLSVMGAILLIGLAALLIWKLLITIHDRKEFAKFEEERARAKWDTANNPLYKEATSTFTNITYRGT
- assay-remarks: SPAV3 binding assay (scintillation proximity)
pIC50: −log10 of the molar value.
outcome-measure: pIC50

molecule: Cc1ncc([C@@H](CCCCCCc2ccc3c(n2)NCCC3)CC(=O)O)cn1
outcome-measure: pIC50
assay-result: 10.00
--
molecule: COc1ccc([C@H](CC(=O)O)N2CCN(CCCc3ccc4c(n3)NCCC43CC3)C2=O)cn1
outcome-measure: pIC50
assay-result: 10.00
--
molecule: CCOc1ccc([C@H](CC(=O)O)N2CCN(CCCc3ccc4c(n3)NCCC4)C2=O)cn1
outcome-measure: pIC50
assay-result: 10.00
--
molecule: COc1ccc([C@H](CC(=O)O)N2CCN(CCCc3ccc4c(n3)NCCC4)C2=O)cn1
outcome-measure: pIC50
assay-result: 10.00
--
molecule: O=C(O)C[C@H](/C=C/CCCCc1ccc2c(n1)NCCC2)c1cncnc1
outcome-measure: pIC50
assay-result: 10.00
--
molecule: Cc1ncc(C(CC(=O)O)CC(=O)CCCCc2ccc3c(n2)NCCCC3)cn1 (stereo not shown)
outcome-measure: pIC50
assay-result: 9.70
--
molecule: Cc1ncc(C(CC(=O)O)CC(=O)CCCCc2ccc3c(n2)NCCC3)cn1 (single isomer, unassigned)
outcome-measure: pIC50
assay-result: 10.00
